Test system: P-gp
Test: MDCK-MDR1 efflux studies
Assay type: in vitro ADME, canine
Conditions: dog, MDCK-MDR1, with GF918 2 µM
Counter-ions that a name gives are not always drawn.
endpoint: efflux ratio at 2 h, 5 µM
# answer = number (no unit)

Incoming: Recall the recorded efflux ratio at 2 h, 5 µM for CC(C)OC(=O)OCOP(=O)(CO[C@H](C)Cn1cnc2c(N)ncnc21)OCOC(=O)OC(C)C [TDF, Tenofovir disoproxil fumarate] with P-gp and state it.
Outgoing: 1.5

====

Assay: in vitro
Conditions: rat, intestinal S9 fraction
Structures can show the parent of a compound that is named as a salt.
endpoint: half-life at 10 µM (s)
Express it in s; write the number only.

Incoming: Item under review: CC(C)OC(=O)OCOP(=O)(CO[C@H](C)Cn1cnc2c(N)ncnc21)OCOC(=O)OC(C)C [TDF, Tenofovir disoproxil fumarate] . Reported half-life at 10 µM?
Outgoing: 34.8

Every entry's value here was drawn from paper PMC5320394.
